TEST DETAILS: Apparent permeability in human Caco2 cells at 10 uM
Assay type: ADME, cell-based
CONDITION DESCRIPTION: Caco-2

{"COMPOUND": "CC(C)NCC(O)COc1cccc2ccccc12 (configuration not stated) [PROPRANOLOL]", "Papp at 10 µM": "71.1 ×10⁻⁶ cm/s"}
{"COMPOUND": "CC(=O)Nc1cc(-c2c(-c3ccc(F)cc3)nc([S+](C)[O-])n2C)ccn1 (configuration not stated)", "Papp at 10 µM": "18.5 ×10⁻⁶ cm/s"}

* * *

TEST DETAILS: AUC (0 to t) in male Sprague-Dawley rat at 30 mg/kg, po by LC-MS/MS analysis
Assay type: ADME, organism-based
CONDITION DESCRIPTION: in vivo

{"COMPOUND": "CC(=O)Nc1cc(-c2c(-c3ccc(F)cc3)nc([S+](C)[O-])n2C)ccn1 (stereo unspecified)", "AUC(0-t) [µM·h]": 29.8}

* * *

Tested on: Canis familiaris
TEST DETAILS: Cmax in Beagle dog assessed as 4-(4-(4-fluorophenyl)-1-methyl-2-(methylsulfinyl)-1H-imidazol-5-yl)pyridin-2-amine level at 40 mg/kg, po by LC-MS/MS analysis
Format: ADME, organism-based, Canis lupus familiaris
Set-up: dose 40 mg/kg, route oral
CONDITION DESCRIPTION: in vivo

{"COMPOUND": "Cn1c([S+](C)[O-])nc(-c2ccc(F)cc2)c1-c1ccnc(N)c1 (stereo unspecified)", "MEASURED ON": "Canis familiaris", "Cmax (µM)": 5.1}

* * *

TEST DETAILS: Tmax in human at 30 mg, po administered as single dose
Format: ADME, organism-based
CONDITION DESCRIPTION: in vivo
QUANTITY KIND: Tmax (h)

{"COMPOUND": "CC(=O)Nc1cc(-c2c(-c3ccc(F)cc3)nc([S+](C)[O-])n2C)ccn1 (configuration not stated)", "QUANTITY KIND": "Tmax", "UNITS TEXT": "h", "OBSERVED VALUE": 2.3}
{"COMPOUND": "Cn1c([S+](C)[O-])nc(-c2ccc(F)cc2)c1-c1ccnc(N)c1 (configuration not stated)", "QUANTITY KIND": "Tmax", "UNITS TEXT": "h", "OBSERVED VALUE": 6}

* * *

TEST DETAILS: Tmax in female Sprague-Dawley rat at 30 mg/kg, po by LC-MS/MS analysis
Assay type: ADME, organism-based
CONDITION DESCRIPTION: in vivo
QUANTITY KIND: Tmax (h)

{"COMPOUND": "CC(=O)Nc1cc(-c2c(-c3ccc(F)cc3)nc([S+](C)[O-])n2C)ccn1 (stereo unspecified)", "OBSERVED VALUE": 2}

* * *

TEST DETAILS: AUC (0 to infinity) in human at 10 mg, po administered as single dose
Format: ADME, organism-based
Set-up: dose 10 mg, time infinity, route oral
CONDITION DESCRIPTION: in vivo
AUC(0-inf) overview

{"COMPOUND": "CC(=O)Nc1cc(-c2c(-c3ccc(F)cc3)nc([S+](C)[O-])n2C)ccn1 (configuration not stated)", "AUC(0-inf), µM·h": 1.04}
{"COMPOUND": "Cn1c([S+](C)[O-])nc(-c2ccc(F)cc2)c1-c1ccnc(N)c1 (configuration not stated)", "AUC(0-inf), µM·h": 3.43}

* * *

Measured inhibition at 10 µM accompanies every entry in the list below.
MEASURED ON: CYP3A4 (Homo sapiens, UniProt P08684)
Sequence (P08684 whole entry): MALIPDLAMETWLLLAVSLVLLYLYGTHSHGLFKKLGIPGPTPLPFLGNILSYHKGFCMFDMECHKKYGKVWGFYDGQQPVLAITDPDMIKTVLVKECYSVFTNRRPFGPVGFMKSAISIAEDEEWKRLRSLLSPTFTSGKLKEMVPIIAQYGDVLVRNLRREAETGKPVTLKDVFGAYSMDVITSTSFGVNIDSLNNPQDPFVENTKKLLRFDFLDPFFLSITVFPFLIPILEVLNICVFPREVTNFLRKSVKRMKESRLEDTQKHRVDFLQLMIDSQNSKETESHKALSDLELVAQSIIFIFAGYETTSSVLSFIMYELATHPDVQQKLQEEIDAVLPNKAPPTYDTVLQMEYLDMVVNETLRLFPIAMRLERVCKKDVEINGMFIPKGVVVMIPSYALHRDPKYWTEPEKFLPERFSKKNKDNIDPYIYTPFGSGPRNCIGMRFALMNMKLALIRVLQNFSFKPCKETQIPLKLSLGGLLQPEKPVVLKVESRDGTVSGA
TEST DETAILS: Inhibition of CYP3A4 (unknown origin) at 10 uM by fluorimetric assay relative to control
Assay type: ADME

{"TEST SMILES": "CSc1nc(-c2ccc(F)cc2)c(-c2ccnc(NC(C)=O)c2)n1C", "UNITS TEXT": "%", "inhibition at 10 µM": -7}
{"TEST SMILES": "CSc1nc(-c2ccc(F)cc2)c(-c2ccnc(Nc3ccccc3)c2)[nH]1", "UNITS TEXT": "%", "inhibition at 10 µM": 16.5}

* * *

TEST DETAILS: Half life in human at 20 mg, po administered as single dose
Assay type: ADME, organism-based
CONDITION DESCRIPTION: in vivo
Measured half-life values are reported for all entries that follow.
QUANTITY KIND: half-life (h)

{"COMPOUND": "CC(=O)Nc1cc(-c2c(-c3ccc(F)cc3)nc([S+](C)[O-])n2C)ccn1 (configuration not stated)", "UNITS TEXT": "h", "OBSERVED VALUE": 3.3}
{"COMPOUND": "Cn1c([S+](C)[O-])nc(-c2ccc(F)cc2)c1-c1ccnc(N)c1 (configuration not stated)", "UNITS TEXT": "h", "OBSERVED VALUE": 10.9}

* * *

TEST DETAILS: AUC (0 to infinity) in Beagle dog at 40 mg/kg, po by LC-MS/MS analysis
Assay type: ADME, organism-based, Canis lupus familiaris
Design: dose 40 mg/kg, time infinity, route oral
CONDITION DESCRIPTION: in vivo
QUANTITY KIND: AUC(0-inf) (µM·h)

{"COMPOUND": "CC(=O)Nc1cc(-c2c(-c3ccc(F)cc3)nc([S+](C)[O-])n2C)ccn1 (stereo unspecified)", "QUANTITY KIND": "AUC(0-inf)", "OBSERVED VALUE": 120}

* * *

TEST DETAILS: Cmax in human at 20 mg, po administered as single dose
Assay type: ADME, organism-based
Set-up: dose 20 mg, route oral
CONDITION DESCRIPTION: in vivo
QUANTITY KIND: Cmax (nM)

{"MOLECULE": "Cn1c([S+](C)[O-])nc(-c2ccc(F)cc2)c1-c1ccnc(N)c1 (configuration not stated)", "QUANTITY KIND": "Cmax", "OBSERVED VALUE": 360}

* * *

TEST DETAILS: Half life in Wistar rat at 30 mg/kg, po administered as single dose via gavage by LC-MS/MS analysis
Type: ADME, organism-based
CONDITION DESCRIPTION: in vivo

{"TEST SMILES": "CSc1nc(-c2ccc(F)cc2)c(-c2ccnc(NC(C)=O)c2)n1C", "half-life [h]": 3}
{"TEST SMILES": "CSc1nc(-c2ccc(F)cc2)c(-c2ccnc(Nc3ccccc3)c2)[nH]1", "half-life [h]": 2.8}

* * *

MEASURED ON: Mitogen-activated protein kinase 14 (Homo sapiens, UniProt Q16539)
Sequence (Q16539 whole entry): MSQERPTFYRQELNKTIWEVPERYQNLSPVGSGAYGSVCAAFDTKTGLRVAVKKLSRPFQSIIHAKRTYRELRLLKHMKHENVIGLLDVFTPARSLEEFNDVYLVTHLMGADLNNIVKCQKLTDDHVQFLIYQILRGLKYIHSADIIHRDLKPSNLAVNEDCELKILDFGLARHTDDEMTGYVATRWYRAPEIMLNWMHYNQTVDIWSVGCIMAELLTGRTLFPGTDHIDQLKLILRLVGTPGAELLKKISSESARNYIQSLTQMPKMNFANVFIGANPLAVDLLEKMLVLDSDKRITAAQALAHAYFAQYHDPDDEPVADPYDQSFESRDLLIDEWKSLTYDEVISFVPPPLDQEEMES
TEST DETAILS: Inhibition of p38alpha MAPK (unknown origin) by beta-galactosidase enzyme complementation assay
pIC50: −log10 of the molar value.

{"COMPOUND": "CC(=O)Nc1cc(-c2c(-c3ccc(F)cc3)nc([S+](C)[O-])n2C)ccn1 (stereo unspecified)", "MEASURED ON": "Mitogen-activated protein kinase 14 (Homo sapiens, UniProt Q16539)", "pIC50": 6.30}

* * *

TEST DETAILS: Toxicity in Sprague-Dawley rat administered via oral gavage measured for 14 days
CONDITION DESCRIPTION: in vivo
QUANTITY KIND: MTD at 336 h (mg/kg)

{"COMPOUND": "CC(=O)Nc1cc(-c2c(-c3ccc(F)cc3)nc([S+](C)[O-])n2C)ccn1 (stereo unspecified)", "OBSERVED VALUE": 150}

* * *

Below are IC50 values recorded for 3',5'-cyclic-AMP phosphodiesterase 4C (Homo sapiens).

{"COMPOUND": "Cn1c([S+](C)[O-])nc(-c2ccc(F)cc2)c1-c1ccnc(N)c1 (configuration not stated)", "MEASURED ON": "3',5'-cyclic-AMP phosphodiesterase 4C (Homo sapiens)", "COMPARISON SIGN": ">", "IC50 / µM": 10}
{"COMPOUND": "CC(=O)Nc1cc(-c2c(-c3ccc(F)cc3)nc([S+](C)[O-])n2C)ccn1 (configuration not stated)", "MEASURED ON": "3',5'-cyclic-AMP phosphodiesterase 4C (Homo sapiens)", "COMPARISON SIGN": "=", "IC50 / µM": 6.4}

* * *

TEST DETAILS: Drug uptake in LPS-stimulated female Lewis rat serum at 10 mg/kg, po pretreated for 1 hrs followed by LPS addition measured after 1.5 hrs post dose
Format: ADME, organism-based
CONDITION DESCRIPTION: read-out: Drug uptake
QUANTITY KIND: concentration at 1.5 h

{"COMPOUND": "CC(=O)Nc1cc(-c2c(-c3ccc(F)cc3)nc([S+](C)[O-])n2C)ccn1 (stereo unspecified)", "OBSERVED VALUE": "237 ng/mL"}

* * *

TEST DETAILS: AUC (0 to infinity) in human at 50 mg, po administered as single dose
Format: ADME, organism-based
Parameters: dose 50 mg, time infinity, route oral
CONDITION DESCRIPTION: in vivo

{"MOLECULE": "CC(=O)Nc1cc(-c2c(-c3ccc(F)cc3)nc([S+](C)[O-])n2C)ccn1 (configuration not stated)", "AUC(0-inf)": "3.58 µM·h"}
{"MOLECULE": "Cn1c([S+](C)[O-])nc(-c2ccc(F)cc2)c1-c1ccnc(N)c1 (configuration not stated)", "AUC(0-inf)": "9.4 µM·h"}
